Values compiled from the RNAGym collection of RNA variant scans (doi:10.7554/elife.90254).

Measured self-cleavage by item
B1: OR4K15 (parent)
chain: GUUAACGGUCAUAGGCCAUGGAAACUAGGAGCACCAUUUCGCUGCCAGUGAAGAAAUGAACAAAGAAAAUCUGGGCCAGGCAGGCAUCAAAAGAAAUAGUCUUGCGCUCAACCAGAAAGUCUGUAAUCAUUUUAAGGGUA

- Variants of: B1
- ASSAY_EXPLANATION: self-cleavage, relative activity (ratio to wild type); higher = more cleavage; in vitro, sequencing; the parent is a self-cleaving ribozyme
MEASURED_ENDPOINT: self-cleavage

In [3]: df
Out[3]:
         mutant  readout_number
 0   A89U U133C            1.97
 1    A11U A96G            1.31
 2   A36G U133C            2.18
 3      G8A U9C            1.16
 4  U122C U124C            0.67
 5   A33G U132A            0.51
 6   U49C G104A            0.04
 7   G48A U120C            1.38
 8  U103C U108C            0.01
 9    U9A A114G            0.33
10   A95G U124A             0.8
11   A18U C128U            1.55
12     G1U A94G            0.76
13    A62U A92G            1.34
14    U19C A52U            0.93
15   A91C A114G            0.64
16    U38C G75C            0.14
17   A23U A117G            1.14
18    G28A A89U            1.38
19   A51G A129G            1.11
20    A33U G99A            1.09
21     U9C A91U            1.49
22    A4G A110G             0.4
23   A59G U133A            1.28
24  A118G A140U            1.28
25     A4G A90G            1.11
26     U2A A63U            1.62
27   G74A A110G            0.02
28    A55G A82U            0.22
29    C17A U43A            1.18
30    A18G A91G            1.41
31    A18G A23G            1.01
32   A33U U131C            1.83
33  U108A U132C            0.03
34   A52G C121A            2.07
35    U87C A90C            0.98
36    A59G A67G            1.28
37   A96U A114G            0.85
38    A91U A92G            1.04
39    G21U G65A            1.96
40     U9A A90G            1.23
41     U2A U38C            1.82
42     G7A A90G            1.26
43    A23U U87A            1.36
44   U97G U103C            0.69
45    C17G U39A            1.07
